Exercise: for every item that follows, state its recorded protein stability index.
B1: ZNF263 (parent)
chain: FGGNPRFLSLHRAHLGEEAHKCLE

- Variants of: B1
- Experiment summary: protein stability index of a GFP-peptide fusion (GPS, HEK-293T) (PSI 1-6); higher = more stable;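 further: lentivirally expressed fusions sorted by FACS into six bins by GFP to DsRed ratio, PSI derived from sequencing read proportions per bin multiplied by bin number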
- Settings: c terminus: a fixed tail appended

Consider `FGGNPRFLSLHRAHLGEEAHSCLE` . Its measured protein stability index is 1.85

Consider `FGMNPRFLSLHRAHLGEEAHKCLE` . Its measured protein stability index is 2.05

Consider `FGGNPRFLSLHRAHLGEEAIKCLE` . Its measured protein stability index is 1.4

Consider `FGDNPRFLSLHRAHLGEEAHKCLE` . Its measured protein stability index is 3.36

Consider `FGGNPRFLVLHRAHLGEEAHKCLE` . Its measured protein stability index is 1.71

Consider `FGGNPRFLSLHRAHLGTEAHKCLE` . Its measured protein stability index is 1.73

Consider `FGGNPRFLSLHRAHLGEEATKCLE` . Its measured protein stability index is 1.55

Consider `FGGNPRFLSLHRNHLGEEAHKCLE` . Its measured protein stability index is 2.04

Consider `FGGNPRALSLHRAHLGEEAHKCLE` . Its measured protein stability index is 2.79

Consider `FGGNPRFLSLHRAHLGEEAHECLE` . Its measured protein stability index is 1.76

Consider `FGGNPLFLSLHRAHLGEEAHKCLE` . Its measured protein stability index is 2.62

Consider `FGGNPRFLSLHFAHLGEEAHKCLE` . Its measured protein stability index is 2.35

Consider `FGGNPRFLSLHRAILGEEAHKCLE` . Its measured protein stability index is 3.64

Consider `FGKNPRFLSLHRAHLGEEAHKCLE` . Its measured protein stability index is 2.36

Consider `FGGNPRFQSLHRAHLGEEAHKCLE` . Its measured protein stability index is 1.66

Consider `FGGNPRFLCLHRAHLGEEAHKCLE` . Its measured protein stability index is 2.16

Consider `FGGNPRFLSLHRAHLGEEAHKCLD` . Its measured protein stability index is 1.71

Consider `FGGNPRFLSLHMAHLGEEAHKCLE` . Its measured protein stability index is 2.36

Consider `FGGNPRFESLHRAHLGEEAHKCLE` . Its measured protein stability index is 2.54

Consider `FGGIPRFLSLHRAHLGEEAHKCLE` . Its measured protein stability index is 2.24

Consider `FGGNPRFLSLHRAHLGPEAHKCLE` . Its measured protein stability index is 1.41
